- MEASUREMENT TARGET: T1, hERα-LBD (ligand binding domain of estrogen receptor α) (human, UniProt P03372 297-554)
- T1 construct: Assayed with estradiol, diethylstilbestrol, genistein or tamoxifen present; the ligand is named under assay in each row
- T1 sequence (looked up): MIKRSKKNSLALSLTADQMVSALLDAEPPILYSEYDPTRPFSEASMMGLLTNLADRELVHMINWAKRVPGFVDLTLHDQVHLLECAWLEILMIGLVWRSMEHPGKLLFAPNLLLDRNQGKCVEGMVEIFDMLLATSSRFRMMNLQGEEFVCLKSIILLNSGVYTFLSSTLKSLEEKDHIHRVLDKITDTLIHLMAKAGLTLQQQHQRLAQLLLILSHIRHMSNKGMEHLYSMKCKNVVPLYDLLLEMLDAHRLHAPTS
- PROTOCOL: fluorescence polarization, labelled peptide 10 nM, hERα-LBD titrated, genistein present
pKd: −log10 of the molar value. Ends that are not written are not given here.
Tag: 1.0 if measured pKd is not below 6, 0.0 if it is.

{"BINDER": "C(5‑iodoacetamidofluorescein)ESKDHQLLRYLLDKDEKDL [SRC1-3 coregulator peptide]", "GROUP": 0.0}

Req: Say whether C(5‑iodoacetamidofluorescein)LTARHKILHRLLQEGSPSD [SRC1-2 coregulator peptide] shows pKd of 6 or more.
Resp: 1.0

Req: Say whether C(5‑iodoacetamidofluorescein)ESKGHKKLLQLLTCSSDDR (The peptide has a second, internal Cys) [SRC3-1 coregulator peptide] shows pKd of 6 or more.
Resp: 1.0

Req: Say whether CLKEKHKILHRLLQDSSSPV (5-iodoacetamidofluorescein coupled to the amino terminal cysteine, also called SRC2-2 peptide) [SRC2-2 coregulator peptide] shows pKd of 6 or more.
Resp: 1.0

Req: Say whether C(5‑iodoacetamidofluorescein)DSKGQTKLLQLLTTKSDQM [SRC2-1 coregulator peptide] shows pKd of 6 or more.
Resp: 0.0

Req: Say whether C(5‑iodoacetamidofluorescein)KKKENALLRYLLDKDDTKD [SRC2-3 coregulator peptide] shows pKd of 6 or more.
Resp: 0.0

Req: Say whether C(5‑iodoacetamidofluorescein)YSQTSHKLVQLLTTTAEQQ [SRC1-1 coregulator peptide] shows pKd of 6 or more.
Resp: 0.0

src = patent US20040005636A1
